Molecular target: Dual specificity protein kinase CLK4 (Homo sapiens) (UniProt Q9HAZ1)
Sequence (Q9HAZ1 whole entry, looked up): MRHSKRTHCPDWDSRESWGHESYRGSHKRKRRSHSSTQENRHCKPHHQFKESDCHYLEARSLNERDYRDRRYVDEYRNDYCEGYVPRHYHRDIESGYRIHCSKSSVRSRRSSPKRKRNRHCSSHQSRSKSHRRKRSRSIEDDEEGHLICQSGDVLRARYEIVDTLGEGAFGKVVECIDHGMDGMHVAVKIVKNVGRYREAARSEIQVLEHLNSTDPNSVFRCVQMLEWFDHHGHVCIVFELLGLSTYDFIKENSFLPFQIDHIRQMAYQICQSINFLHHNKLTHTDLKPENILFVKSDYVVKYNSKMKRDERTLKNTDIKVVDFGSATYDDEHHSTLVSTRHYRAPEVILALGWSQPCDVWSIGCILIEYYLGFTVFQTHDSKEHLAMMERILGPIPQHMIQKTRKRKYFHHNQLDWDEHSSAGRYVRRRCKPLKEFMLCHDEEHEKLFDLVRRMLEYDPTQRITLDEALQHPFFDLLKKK
Assay: qHTS Assay for Inhibitors of CDC-like Kinase 4 (ADP-Glo Assay) (AID 1771); further: nearly all actives have a fitted effect of over 70% in size
Conditions: recombinant CLK4, ADP-Glo luminescence; series mostly up to 80 µM
Inconclusive results are not listed. Active and inactive are the calls of the source. The call rests on the fitted dose curve; in most records, active means well fitted inhibition curve with a large enough effect; inconclusive means small, poorly fitted or top-dose-only effect; inactive means flat fitted curve, though single readings scatter.
The categories you may choose from are active, inactive

Would you mind telling me which call this test gave `CCNc1ncc2nc(-c3cn(C)c4ccccc34)c(=O)n(Cc3ccc(F)cc3)c2n1` ?
inactive

Recorded test outcome, item `COc1ccc2[nH]cc(CCNc3ccnc(-c4cccnc4)n3)c2c1`
active

Would you mind telling me which call this test gave `COc1ccccc1-c1ccc2ncnc(Nc3ccccc3)c2c1` ?
active

Give the logged outcome of this assay for the following compound: `Cc1cccc(CNc2ccnc(-c3cccc(C#N)c3)n2)c1`
active

Please let me know the test result on file for `COc1ccccc1CNc1ncnc2ccc(-c3ccccc3OC)cc12` .
active

Test call, this compound: `Cc1noc(C)c1-c1nc(NC2CC2)c2ccccc2n1`
active

Please let me know the test result on file for `Cn1cc(-c2nc3cnc(N4CCNCC4)nc3n(-c3ccccc3)c2=O)c2ccccc21` .
inactive

Tell me the assay call for `COc1ncc2nc(-c3cn(C)c4ccccc34)c(=O)n(CCC#N)c2n1` please.
inactive

* * *

Assay: NFAT Signaling Pathway (AID 444);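 further: carbachol stimulus at about its EC50 of 1 µM final; on the % scale 0 is the no-effect control and ±100 the full control effect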
Details: Jurkat NFAT-bla M1, carbachol, beta-lactamase ratio, 5 h; at 7.69 µM (top of the series) unless noted
Procedure: NCGC Assay Overview: The nuclear factor of activated T cells (NFAT) family of transcription factors has been found primarily in most immune system cells and some other non-immune cells. NFAT plays the immunomodulatory role, primarily in T-cell activation and differentiation. […] NCGC Assay Protocol Summary: The cells were prepared in RPMI 1640 medium containing 0.1% dialyzed FBS and 25 mM HEPES at 1.6 x 10^6cell/ml. […] The %Activity was determined from the ratio of 460nm/530nm. […]
Results filed as inconclusive are left out. Calls of active or inactive are those of the source. Calls come from the whole dose curve; as a rule, active = well fitted curve in either direction with a large enough effect (not every such curve was filed as active); inconclusive = small, poorly fitted or top-dose-only effect, or another doubt; inactive = flat fitted curve, though single readings scatter.
Return exactly one item of active, inactive

Example entries begin here.
CS(=O)(=O)Nc1cccc(-c2nc(N3CCOCC3)c3ccccc3n2)c1 : inactive
COc1ccccc1OC[C@H](O)COC(N)=O : inactive

Hi, sorry to bother you, what did the test record for `COc1ccc(C(=O)N2CCC3(CCCN(c4ncccn4)C3)CC2)cc1` ?
inactive

What did the test return for `CN(C)C(=O)c1ccc(-c2nccc(N(C)Cc3ccco3)n2)cc1` ?
inactive

Tell me the recorded outcome of this test for `CC(=O)N1CCC2(CC1)CCN(c1cccc(-c3ccccc3)c1)CC2` .
inactive

* * *

Target: Glucocorticoid receptor (Homo sapiens) (UniProt P04150)
Sequence (P04150 whole entry, looked up): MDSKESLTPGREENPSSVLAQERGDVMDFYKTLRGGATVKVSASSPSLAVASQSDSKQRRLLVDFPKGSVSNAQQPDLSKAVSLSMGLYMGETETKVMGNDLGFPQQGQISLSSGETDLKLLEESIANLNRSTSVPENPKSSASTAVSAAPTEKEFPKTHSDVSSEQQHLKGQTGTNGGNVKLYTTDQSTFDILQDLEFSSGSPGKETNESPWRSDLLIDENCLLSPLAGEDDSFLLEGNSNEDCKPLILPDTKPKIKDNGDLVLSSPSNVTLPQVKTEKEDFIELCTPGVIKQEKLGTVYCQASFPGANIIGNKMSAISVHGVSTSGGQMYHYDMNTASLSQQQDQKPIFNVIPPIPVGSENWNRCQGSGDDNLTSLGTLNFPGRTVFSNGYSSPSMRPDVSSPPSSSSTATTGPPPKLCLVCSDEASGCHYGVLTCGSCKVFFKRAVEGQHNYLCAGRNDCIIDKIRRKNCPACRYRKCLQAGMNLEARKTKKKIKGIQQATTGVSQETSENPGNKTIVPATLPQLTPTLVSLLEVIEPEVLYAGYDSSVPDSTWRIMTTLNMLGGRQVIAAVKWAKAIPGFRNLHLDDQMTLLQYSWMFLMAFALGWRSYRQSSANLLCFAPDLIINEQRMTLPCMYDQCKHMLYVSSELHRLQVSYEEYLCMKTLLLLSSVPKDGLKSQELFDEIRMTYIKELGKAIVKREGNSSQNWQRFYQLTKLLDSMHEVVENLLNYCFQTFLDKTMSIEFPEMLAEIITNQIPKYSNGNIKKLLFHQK
Assay: GR-EFC Redistribution (AID 451); further: potency means the concentration at half of the fitted maximal effect
Details: CHO-K1 GR-EFC translocation, beta-gal luminescence, 2 h
Active and inactive are the calls of the source. Calls follow the shape of the full dose curve.
Returns: one label drawn from 1 (yes) (active), 0 (no) (inactive)

Example results:
CC(C)(O/N=C(\C(=O)N[C@@H]1C(=O)N2C(C(=O)[O-])=C(C[n+]3ccccc3)CS[C@@H]12)c1csc(N)n1)C(=O)O : 0 (no)
O=C(c1cc(C(F)(F)F)cc(C(F)(F)F)c1)N1CCC2(CC1)CCN(c1ccccc1)CC2 : 0 (no)
c1ncc(-c2ccc3c(c2)OCO3)c(NCCc2cnc[nH]2)n1 : 0 (no)
N#Cc1cccc(NC(=O)N2CC[C@@]3(CCCN(C(=O)c4cccc(F)c4)C3)C2)c1 : 0 (no)
COc1ccccc1CN1CC[C@@]2(CCCN(C(=O)c3cc(C(F)(F)F)cc(C(F)(F)F)c3)C2)C1 : 0 (no)
CS(=O)(=O)N1CCC2(CC1)CN(c1ncccn1)C2 : 0 (no)
O=C(c1cc(C(F)(F)F)cc(C(F)(F)F)c1)N1CCC2(CC1)CN(c1ccncc1)C2 : 0 (no)
COc1ccccc1-c1ccc2ncnc(NCc3ccccc3)c2c1 : 0 (no)
CN(Cc1ccco1)c1nc(-c2cccc(C#N)c2)nc2ccccc12 : 0 (no)
CCCCCCCNS(=O)(=O)c1cccc2c(Cl)cccc12 : 0 (no)

Recorded call for `CC1(C)O[C@@H]2C[C@H]3[C@H]4C[C@H](F)C5=CC(=O)C=C[C@@]5(C)[C@@H]4[C@H](O)C[C@]3(C)[C@]2(C(=O)CO)O1` ?
1 (yes)

Which outcome did this test record for the molecule `O=C(Nc1ccccc1)N1CCCC2(CCN(C(=O)c3cnccn3)CC2)C1` ?
0 (no)

Give the logged outcome of this assay for the following molecule: `N#Cc1ccccc1-c1ccc2ncnc(NC3CC3)c2c1`
0 (no)

Test call for this molecule, please: `COCC(=O)N1CCC2(CCCN(Cc3ccc(C#N)cc3)C2)CC1`
0 (no)

Outcome? `Cn1cc(-c2nc3cncnc3n(CCN)c2=O)c2ccccc21`
0 (no)

What classification did `Cc1cnc(CNc2ncnc3ccc(-c4ccc5c(c4)OCO5)cc23)cn1` end up with in this test?
0 (no)

* * *

Let's look at some molecules and their measured max response.
Assay: qHTS Assay for Lipid Storage Modulators (AID 1519)
Conditions: Drosophila S3 cells, BODIPY lipid droplet/cell ratio, laser cytometry; measured here: cell count channel max response; cells loaded with oleic acid
Inconclusive results are not listed.
Only the number, expressed in %, is required.

Example results:
COc1ccc(NC(=O)N2CC[C@@]3(CCCN(C(C)=O)C3)C2)cc1 : 4.36
COc1ccc(-n2c(=O)c(-c3cccs3)nc3cnc(N4CCNCC4)nc32)cc1 : 3.53
COc1ncc2nc(-c3cn(C)c4ccccc34)c(=O)n(Cc3ccc(F)cc3)c2n1 : 18.8
N#Cc1ccc(CN2CCCC3(CCN(C(=O)c4csnn4)CC3)C2)cc1 : -10.9
COc1ccccc1-c1ccc2ncnc(NCCNC(C)=O)c2c1 : -6.93
Cc1noc(C)c1C(=O)N1CCC2(CCCN(C(=O)Nc3cccc(C#N)c3)C2)CC1 : 12.8
COc1ccc(C(=O)N2CCC[C@@]3(CCN(CC(C)C)C3)C2)cc1 : 8.22
O=C(c1cc(C(F)(F)F)cc(C(F)(F)F)c1)N1CCC2(CCN(Cc3ccccc3)CC2)CC1 : 18.5
O=C(Oc1ccccc1)N1CCC[C@@]2(CCN(c3ccncc3)C2)C1 : 13.6
COCCNc1nc(-c2cccc(OC)c2)nc2ccccc12 : 5.13

Give max response for CC(=O)OC1CCC23CC1(C)CCC2C(C)(C)CC3OC(C)=O (configuration not stated)
3.38

Output max response of `COc1ccc(-c2nc3cnc(N4CCN(C)CC4)nc3n(C)c2=O)cc1`
6.37

* * *

Molecular target: Dual specificity protein kinase CLK4 (Homo sapiens)
Experiment: qHTS Assay for Inhibitors of CDC-like Kinase 4 (ADP-Glo Assay) (AID 1771); further: nearly all actives have a fitted effect of over 70% in size
Settings: recombinant CLK4, ADP-Glo luminescence; series mostly up to 80 µM
Records with an inconclusive call do not appear. Active and inactive are the calls of the source. Calls come from the whole dose curve; as a rule, active = well fitted inhibition curve with a large enough effect; inconclusive = small, poorly fitted or top-dose-only effect; inactive = flat fitted curve, though single readings scatter.
Entry note: the call must match one of active, inactive

Worked examples follow.
O=c1c(-c2ccccc2)nc2cnc(N3CCOCC3)nc2n1Cc1cccs1 : inactive
COc1ccc(-n2c(=O)c(-c3cccc(Cl)c3)nc3cncnc32)cc1 : inactive
CN(C)C(=O)c1ccc(-c2nccc(Nc3ccc(F)cc3)n2)cc1 : inactive
COc1ccccc1CNc1ncnc2ccc(-c3ccc4c(c3)OCO4)cc12 : active
CCNc1ncc2nc(-c3cn(C)c4ccccc34)c(=O)n(C[C@H]3CCCO3)c2n1 : inactive

Please share the test call associated with `CN(C)c1ncc2nc(-c3ccccc3)c(=O)n(CCC#N)c2n1` .
inactive

Hi, sorry to bother you, what did the test record for `O=c1c(-c2ccc(F)cc2)nc2cnc(N3CCOCC3)nc2n1CCc1ccccc1` ?
inactive

Record lookup: outcome of this test for `CN1CCN(c2ncc3nc(-c4cn(C)c5ccccc45)c(=O)n(C)c3n2)CC1` ?
inactive

Fill in: this test's call for `COCCn1c(=O)c(-c2ccc(F)cc2)nc2cnc(N(C)C)nc21` is ___
inactive

Please let me know the test result on file for `Cc1cnc(CNc2ncncc2-c2cccc(NS(C)(=O)=O)c2)cn1` .
inactive

Which result was noted for this molecule in the test: `c1ccc(CNc2ncnc3ccc(-c4ccc5c(c4)OCO5)cc23)cc1`
active

* * *

Target: Ubiquitin carboxyl-terminal hydrolase 1 (Homo sapiens)
Assay: Inhibitors of USP1/UAF1: Pilot qHTS (AID 504865); further: nearly all actives have a fitted effect of over 35% in size; further: potency means the concentration at half of the fitted maximal effect
Details: purified USP1/UAF1, Ub-rhodamine cleavage fluorescence; series mostly up to 54.9 µM
Records with an inconclusive call do not appear. Active and inactive are the calls of the source. Calls follow the shape of the dose curve; as a rule, active = well fitted inhibition curve with a large enough effect; inconclusive = small, poorly fitted or top-dose-only effect; inactive = flat fitted curve, though single readings scatter.
Assay metric: Potency

CC(=O)Oc1ccccc1C(=O)Oc1ccccc1C(=O)O : inactive
CN(C)C(=O)c1ccc(-c2cncnc2NCCN2CCOCC2)cc1 : inactive
Cn1c(=O)c(-c2ccc(Cl)cc2)nc2cnc(N3CCNCC3)nc21 : inactive
COc1ncc2nc(-c3ccc(Cl)cc3)c(=O)n(C)c2n1 : inactive
COc1ccc2[nH]cc(CCNc3cc(-c4ccc5c(c4)OCO5)ncn3)c2c1 : inactive
COc1ccc(CNc2ncnc3ccc(-c4c(C)noc4C)cc23)c(OC)c1 : inactive
COc1cccc(-c2ccc3ncnc(NCCNC(C)=O)c3c2)c1 : inactive
N#Cc1cccc(-c2nc(Nc3ccccc3)c3ccccc3n2)c1 : inactive

Determine from records and report Potency for `Cc1noc(C)c1-c1nc(NCCN2CCOCC2)c2ccccc2n1`
inactive

Look up and state reported Potency for `CC(=O)NCCNc1nc(-c2c(C)noc2C)nc2ccccc12`
inactive

Give Potency for the following molecule: `Cc1ccccc1-c1nc(N(C)Cc2ccco2)c2ccccc2n1`
28.2 µM (active)

Using known records, supply Potency for `CCNc1ncc2nc(-c3cc(F)cc(F)c3)c(=O)n(CCc3ccccc3)c2n1`
20 µM (active)
